Entry source: paper PMC8038991

Target: GST-ZZ122-175 domain (p62) (Homo sapiens, UniProt Q13501)
Construct: GST-fused p62 (122–175) wild type and mutants (N132Q and N132D) were expressed in E. coli; made in house; host or cells: E. coli BL21 (DE3) RIL
Assay: Isothermal titration calorimetry, GST-ZZ122-175 (Fig. 2e)
Assay type: binding
Conditions: ITC, (GST-)ZZ122-175 wild type, 25 °C; read-out: KD
Protocol: For isothermal titration calorimetry (ITC), GST-fused p62 (122–175) wild type and mutants (N132Q and N132D) were expressed in E. coli BL21 (DE3) RIL competent cells in Luria–Bertani media with 0.1 mM Isopropyl-β-D-thio-galactoside (IPTG) at 18 °C. Cells were collected and sonicated in a B buffer (50 mM Tris–HCl pH 7.5, 200 mM NaCl) containing 3 mM β-mercaptoethanol (β-ME). […]
Peptide text beside a SMILES is read from it.
attribute_measured: Kd (µM)
Numbers only, in µM.

Lab request: please report Kd under test system GST-ZZ122-175 domain (p62) (Homo sapiens, UniProt Q13501) for CC[C@H](C)[C@H](NC(=O)[C@@H](N)Cc1ccc(O)cc1)C(=O)N[C@@H](Cc1ccccc1)C(=O)N[C@@H](CO)C(=O)O [YIFS] (H-YIFS-OH)
16.1

* * *

Biological target: N132D mutant ZZ122-175 (p62) (Homo sapiens, UniProt Q13501, N132D)
Construct: GST-fused p62 (122–175) wild type and mutants (N132Q and N132D) were expressed in E. coli; GST (N)
Sequence (Q13501 122-175 N132D): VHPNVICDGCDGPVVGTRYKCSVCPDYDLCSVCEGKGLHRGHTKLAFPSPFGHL
Assay: Isothermal titration calorimetry, N132D ZZ
Conditions: ITC, N132D ZZ122-175, 25 °C; read-out: binding affinity (KD)
Peptide text beside a SMILES is read from it.
attribute_measured: Kd (µM)
Numbers only, in µM.

{"compound": "CC[C@H](C)[C@H](NC(=O)[C@@H](N)CCCNC(=N)N)C(=O)N[C@@H](Cc1ccccc1)C(=O)N[C@@H](CO)C(=O)O [RIFS] (H-RIFS-OH)", "Kd [µM]": 2.85}

Now turn to the next compound.
So what's the measured Kd for this one? CC[C@H](C)[C@H](NC(=O)[C@@H](N)Cc1ccc(O)cc1)C(=O)N[C@@H](Cc1ccccc1)C(=O)N[C@@H](CO)C(=O)O [YIFS] (H-YIFS-OH)
107

* * *

Biological target: wild type ZZ122-175 (p62) (Homo sapiens)
Construct: GST-fused p62 (122–175) wild type and mutants (N132Q and N132D) were expressed in E. coli; GST (N)
Sequence (Q13501 122-175): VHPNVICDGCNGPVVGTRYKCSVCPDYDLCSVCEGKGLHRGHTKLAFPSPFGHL
Assay: Isothermal titration calorimetry, wild type ZZ (Fig. 3b)
Conditions: ITC, wild type ZZ122-175, 25 °C; read-out: binding affinity (KD)
Peptide text beside a SMILES is read from it.
attribute_measured: pKd
Numbers only, as −log10 of the molar value.

{"compound": "CC[C@H](C)[C@H](NC(=O)[C@@H](N)Cc1ccc(O)cc1)C(=O)N[C@@H](Cc1ccccc1)C(=O)N[C@@H](CO)C(=O)O [YIFS] (H-YIFS-OH)", "experimental_system": "wild type ZZ122-175 (p62) (Homo sapiens)", "numeric_readout": 4.68}

Then this compound:
What measured pKd is associated with CC[C@H](C)[C@H](NC(=O)[C@@H](N)CCCNC(=N)N)C(=O)N[C@@H](Cc1ccccc1)C(=O)N[C@@H](CO)C(=O)O [RIFS] (H-RIFS-OH) on wild type ZZ122-175 (p62) (Homo sapiens)?
5.16
